Listing of entries alongside the reported protein stability index.
B1: ANKRD40 (parent)
chain: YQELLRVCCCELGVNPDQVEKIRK

- Variants of: B1
- protocol: protein stability index of a GFP-peptide fusion (GPS, HEK-293T) (PSI 1-6); higher = more stable;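 note: lentivirally expressed fusions sorted by FACS into six bins by GFP to DsRed ratio, PSI derived from sequencing read proportions per bin multiplied by bin number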
- run_parameters: c terminus: a fixed tail appended
Lab note: write the figure by itself, no unit.

C8E : 3.56
C8I : 2.38

GET /values?readout=protein stability index&item= C8N 3.48

Further, for P16L ? 2.11

Further, for L5N ? 1.99

Further, for R23Y ? 1.8

Further, for E11M ? 2.03

Further, for I22M ? 1.63

Further, for C10M ? 2.08

Further, for C8L ? 2.24

Further, for K21D ? 1.66

Further, for K24D ? 2.13

Further, for V14H ? 2.22

Further, for K21R ? 2.12

Further, for C9F ? 3.38

Further, for G13D ? 2.19

Further, for V7K ? 2.23

Further, for D17T ? 2.42

Further, for R23H ? 1.84

Further, for L12C ? 2.03

Further, for E3I ? 1.57
